Molecular target: CYP3A4 (double-labeled C64/C468-ER/DY) (Homo sapiens, UniProt P08684, form not given/S18F)
Sequence (P08684 13-503 S18F, form open): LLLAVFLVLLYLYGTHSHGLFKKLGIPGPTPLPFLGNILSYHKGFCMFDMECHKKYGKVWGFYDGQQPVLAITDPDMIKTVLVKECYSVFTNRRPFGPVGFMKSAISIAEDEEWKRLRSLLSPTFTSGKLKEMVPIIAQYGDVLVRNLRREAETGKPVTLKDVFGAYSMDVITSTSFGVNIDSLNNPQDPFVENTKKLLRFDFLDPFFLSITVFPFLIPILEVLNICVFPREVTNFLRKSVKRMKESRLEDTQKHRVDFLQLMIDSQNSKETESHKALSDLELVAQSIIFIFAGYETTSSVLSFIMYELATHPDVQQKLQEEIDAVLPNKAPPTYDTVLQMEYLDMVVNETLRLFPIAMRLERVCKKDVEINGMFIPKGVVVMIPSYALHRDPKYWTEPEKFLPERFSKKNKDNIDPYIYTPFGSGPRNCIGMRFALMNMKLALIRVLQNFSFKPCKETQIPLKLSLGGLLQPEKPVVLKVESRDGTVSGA
Assay: Ligand-induced spin shift, absorbance titration
Assay type: binding
Details: human, purified double-labeled CYP3A4 C64/C468-ER/DY protein, pH 7.4
PARAMETER: Kd

// query Kd value for entry C[C@]12CC[C@H]3[C@@H](CCC4=CC(=O)CC[C@@]43C)[C@@H]1CC[C@@H]2O [Testosterone, testosterone] 38 µM

====

Molecular target: double-labeled CYP3A4 C377/C468-DY/ER (Homo sapiens, UniProt P08684, S18F, form not given)
Sequence (P08684 13-503 S18F, form open): as the sequence (P08684 13-503 S18F, form open) above
Assay: Time-resolved LRET (phosphorescence lifetime measurements)
Conditions: Table S1; protein (C377/C468)-ER/DY; same ligand concentrations
Where a name gives a salt, the structure may show the parent alone.
PARAMETER: F1 (fraction of first exponential) (%)
Express it in %; write the number only.

// query F1 (fraction of first exponential) value for entry CC(C)C[C@H]1C(=O)N2CCC[C@H]2[C@]2(O)O[C@](NC(=O)[C@@H]3C=C4c5cccc6[nH]c(Br)c(c56)C[C@H]4N(C)C3)(C(C)C)C(=O)N12 [Bromocriptine, Bromocriptine mesylate] 20

// query F1 (fraction of first exponential) value for entry `CC(C)CCC[C@@H](C)[C@H]1CC[C@H]2[C@@H]3CC=C4C[C@@H](O)CC[C@]4(C)[C@H]3CC[C@]12C` 23

// query F1 (fraction of first exponential) value for entry `C[C@]12CC[C@H]3[C@@H](CCC4=CC(=O)CC[C@@]43C)[C@@H]1CC[C@@H]2O` 26

// query F1 (fraction of first exponential) value for entry `O=c1cc(-c2ccccc2)oc2c1ccc1ccccc12` 28

// query F1 (fraction of first exponential) value for entry `OCCCCc1ccc2ccc3cccc4ccc1c2c34` 30

====

Molecular target: double-labeled CYP3A4 C64/C121-DY/ER (Homo sapiens, UniProt P08684, A121C/C239S/C377S/C468A/C98S/S18F)
Sequence (P08684 with tags, fused parts or gaps S18F/C98S/A121C/C239S/C377S/C468A limits assumed): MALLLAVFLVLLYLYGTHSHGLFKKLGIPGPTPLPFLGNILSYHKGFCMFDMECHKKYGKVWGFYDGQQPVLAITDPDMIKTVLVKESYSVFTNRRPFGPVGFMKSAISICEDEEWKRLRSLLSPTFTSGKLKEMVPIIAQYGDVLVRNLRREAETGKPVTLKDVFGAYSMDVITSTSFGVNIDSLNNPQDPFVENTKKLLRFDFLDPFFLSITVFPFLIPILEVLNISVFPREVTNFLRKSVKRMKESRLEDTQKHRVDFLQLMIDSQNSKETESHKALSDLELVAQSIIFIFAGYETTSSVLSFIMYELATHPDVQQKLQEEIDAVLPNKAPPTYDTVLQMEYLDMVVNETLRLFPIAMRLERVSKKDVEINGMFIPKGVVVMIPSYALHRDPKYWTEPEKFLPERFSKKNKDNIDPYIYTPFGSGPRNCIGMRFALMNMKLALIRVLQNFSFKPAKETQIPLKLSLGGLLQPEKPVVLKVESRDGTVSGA
Experiment: Time-resolved LRET (phosphorescence lifetime measurements)
Settings: Table S1; protein (C64/C121)-ER/DY; same ligand concentrations
Structures can show the parent of a compound that is named as a salt.
PARAMETER: τ2 (phosphorescence decay time with ligand) (µs)
Express it in µs; write the number only.

>>> assay_result("OCCCCc1ccc2ccc3cccc4ccc1c2c34")
199
>>> assay_result("CC(C)CCC[C@@H](C)[C@H]1CC[C@H]2[C@@H]3CC=C4C[C@@H](O)CC[C@]4(C)[C@H]3CC[C@]12C")
222
>>> assay_result("O=c1cc(-c2ccccc2)oc2c1ccc1ccccc12")
232

// query τ2 (phosphorescence decay time with ligand) value for entry `C[C@]12CC[C@H]3[C@@H](CCC4=CC(=O)CC[C@@]43C)[C@@H]1CC[C@@H]2O` 228

// query τ2 (phosphorescence decay time with ligand) value for entry CC(C)C[C@H]1C(=O)N2CCC[C@H]2[C@]2(O)O[C@](NC(=O)[C@@H]3C=C4c5cccc6[nH]c(Br)c(c56)C[C@H]4N(C)C3)(C(C)C)C(=O)N12 [Bromocriptine, Bromocriptine mesylate] 242

====

Listed here: items and their measured ΔR, lifetime measurements.
Biological target: double-labeled CYP3A4 (C64/C468)-DY/ER (Homo sapiens, UniProt P08684, S18F, form not given)
Sequence (P08684 13-503 S18F, form open): as the sequence (P08684 13-503 S18F, form open) above
Assay: Time-resolved LRET (phosphorescence lifetime measurements)
Conditions: Table S2; C64/C468-DY/ER; same ligand concentrations
Structures can show the parent of a compound that is named as a salt.
Numeric answer plus unit only.

Examples with answers:
>>> assay_result("CC(C)CCC[C@@H](C)[C@H]1CC[C@H]2[C@@H]3CC=C4C[C@@H](O)CC[C@]4(C)[C@H]3CC[C@]12C")
"1.6 ± 0.7 Å"
>>> assay_result("C[C@]12CC[C@H]3[C@@H](CCC4=CC(=O)CC[C@@]43C)[C@@H]1CC[C@@H]2O")
"4.8 ± 0.3 Å"
>>> assay_result("CC(C)C[C@H]1C(=O)N2CCC[C@H]2[C@]2(O)O[C@](NC(=O)[C@@H]3C=C4c5cccc6[nH]c(Br)c(c56)C[C@H]4N(C)C3)(C(C)C)C(=O)N12 [Bromocriptine, Bromocriptine mesylate]")
"0.3 ± 0.8 Å"
>>> assay_result("O=c1cc(-c2ccccc2)oc2c1ccc1ccccc12")
"1.8 ± 0.5 Å"

// query ΔR, lifetime measurements value for entry `OCCCCc1ccc2ccc3cccc4ccc1c2c34` -0.9 ± 0.1 Å
